target: UniProt:P08069; experiment: Caliper, Mobility shift assay off-chip; settings: compound 1.0 µM
Sequence (P08069 whole entry, looked up): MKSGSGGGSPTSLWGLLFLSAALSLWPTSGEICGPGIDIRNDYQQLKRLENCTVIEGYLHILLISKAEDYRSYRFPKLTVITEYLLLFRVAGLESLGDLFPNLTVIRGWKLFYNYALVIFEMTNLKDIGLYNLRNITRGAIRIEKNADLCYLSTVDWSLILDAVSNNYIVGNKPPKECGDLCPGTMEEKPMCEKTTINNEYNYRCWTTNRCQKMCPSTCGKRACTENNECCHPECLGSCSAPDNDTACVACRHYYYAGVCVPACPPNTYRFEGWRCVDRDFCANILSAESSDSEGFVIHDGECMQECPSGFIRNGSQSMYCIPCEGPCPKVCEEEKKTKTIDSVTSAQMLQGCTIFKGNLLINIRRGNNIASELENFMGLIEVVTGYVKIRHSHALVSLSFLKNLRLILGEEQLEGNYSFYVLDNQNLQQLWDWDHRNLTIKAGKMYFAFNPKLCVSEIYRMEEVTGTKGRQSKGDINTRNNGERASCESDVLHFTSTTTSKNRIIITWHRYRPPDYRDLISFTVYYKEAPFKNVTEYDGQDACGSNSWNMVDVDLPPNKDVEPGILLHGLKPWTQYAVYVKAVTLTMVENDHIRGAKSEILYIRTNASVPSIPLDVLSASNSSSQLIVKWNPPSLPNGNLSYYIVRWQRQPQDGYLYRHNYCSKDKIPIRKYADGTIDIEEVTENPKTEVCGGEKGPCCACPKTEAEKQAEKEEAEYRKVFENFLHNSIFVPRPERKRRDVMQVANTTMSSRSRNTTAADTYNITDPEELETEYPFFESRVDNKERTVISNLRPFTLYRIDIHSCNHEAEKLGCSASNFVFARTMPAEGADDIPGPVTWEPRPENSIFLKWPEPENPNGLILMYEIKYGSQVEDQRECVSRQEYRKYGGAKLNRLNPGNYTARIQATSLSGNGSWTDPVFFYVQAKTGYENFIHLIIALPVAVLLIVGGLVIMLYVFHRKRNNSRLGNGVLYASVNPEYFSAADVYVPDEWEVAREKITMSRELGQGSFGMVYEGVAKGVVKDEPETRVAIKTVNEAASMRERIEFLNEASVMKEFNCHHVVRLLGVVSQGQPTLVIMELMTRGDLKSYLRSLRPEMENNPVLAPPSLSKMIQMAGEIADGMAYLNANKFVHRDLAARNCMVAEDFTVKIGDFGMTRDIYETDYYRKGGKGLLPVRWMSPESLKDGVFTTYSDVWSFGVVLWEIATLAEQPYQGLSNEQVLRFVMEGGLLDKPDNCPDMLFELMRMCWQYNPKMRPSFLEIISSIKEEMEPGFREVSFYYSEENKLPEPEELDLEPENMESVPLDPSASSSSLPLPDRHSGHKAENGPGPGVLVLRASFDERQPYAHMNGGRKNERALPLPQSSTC
assay_readout: inhibition (%)
The response must be a number in % with no trailing unit.

The cases that follow already have their inhibition on record.
compound | assay_system | inhibition (%)
Cn1cc(-c2cnc3ccc4ccc(CS(=O)(=O)CCc5ccccn5)cc4c(=O)c3c2)cn1 | UniProt:P08069 | -10
Cn1cc(-c2cnc3ccc4ccc(CS(=O)(=O)NCC5CCCCN5)cc4c(=O)c3c2)cn1 (stereo not given) | UniProt:P08069 | -8.3
Cn1cc(-c2cnc3ccc4ccc(CS(N)(=O)=O)cc4c(=O)c3c2)cn1 | UniProt:P08069 | 1.8
CN(c1ccc2ccc3ncc(-c4cnn(C)c4)cc3c(=O)c2c1)S(=O)(=O)NCc1ccccn1 | UniProt:P08069 | -0.8

Okay, now this compound:
INPUT: Data request, read-out inhibition, for O=C(CCc1ccc2ccc3ncc(C4CCNCC4)cc3c(=O)c2c1)NCc1ccccn1
OUTPUT: 1.3

----------
target: PRKCZ (human); experiment: Caliper, Mobility shift assay off-chip; settings: compound 1.0 µM
assay_readout: inhibition (%)
The response must be a number in % with no trailing unit.

INPUT: Data request, read-out inhibition, for O=C(CCc1ccc2ccc3ncc(C4CCNCC4)cc3c(=O)c2c1)NCc1ccccn1
OUTPUT: 1.2

INPUT: Data request, read-out inhibition, for Cn1cc(-c2cnc3ccc4ccc(CS(N)(=O)=O)cc4c(=O)c3c2)cn1
OUTPUT: 1

INPUT: Data request, read-out inhibition, for CN(c1ccc2ccc3ncc(-c4cnn(C)c4)cc3c(=O)c2c1)S(=O)(=O)NCc1ccccn1
OUTPUT: 3.7

INPUT: Data request, read-out inhibition, for Cn1cc(-c2cnc3ccc4ccc(CS(=O)(=O)NCC5CCCCN5)cc4c(=O)c3c2)cn1 (stereo not given)
OUTPUT: 1.3

INPUT: Data request, read-out inhibition, for Cn1cc(-c2cnc3ccc4ccc(CS(=O)(=O)CCc5ccccn5)cc4c(=O)c3c2)cn1
OUTPUT: 6.8

----------
Readings of inhibition for the listed compounds
system: ABL1 (human), P00519 [Q252H]; assay: Caliper, Mobility shift assay off-chip; conditions: compound 0.1 µM
The response must be a number in % with no trailing unit.

The cases that follow already have their inhibition on record.
compound | units_of_measure | inhibition
O=c1c2cc(CS(=O)(=O)NCc3ccccn3)ccc2ccc2ncc(C3CCNCC3)cc12 | % | 26.3
Cn1cc(-c2cnc3ccc4ccc(CS(=O)(=O)NC5CCCCC5)cc4c(=O)c3c2)cn1 | % | 7.6
CN(c1ccc2ccc3ncc(-c4cnn(C)c4)cc3c(=O)c2c1)S(=O)(=O)NCc1ccccn1 | % | 6.9
Cn1cc(-c2cnc3ccc4ccc(CS(=O)(=O)CCc5ccccn5)cc4c(=O)c3c2)cn1 | % | 4.6

INPUT: Data request, read-out inhibition, for Cn1cc(-c2cnc3ccc4ccc(CS(=O)(=O)NCC5CCCCN5)cc4c(=O)c3c2)cn1 (configuration not stated)
OUTPUT: 1.4

INPUT: Data request, read-out inhibition, for Cn1cc(-c2cnc3ccc4ccc(CS(N)(=O)=O)cc4c(=O)c3c2)cn1
OUTPUT: -0.1

INPUT: Data request, read-out inhibition, for O=C(CCc1ccc2ccc3ncc(C4CCNCC4)cc3c(=O)c2c1)NCc1ccccn1
OUTPUT: -1.7

----------
Readings of inhibition for the listed compounds
target: PRKD2 (human) (UniProt Q9BZL6); test: Caliper, Mobility shift assay off-chip; conditions: compound 0.1 µM
Sequence (Q9BZL6 whole entry, looked up): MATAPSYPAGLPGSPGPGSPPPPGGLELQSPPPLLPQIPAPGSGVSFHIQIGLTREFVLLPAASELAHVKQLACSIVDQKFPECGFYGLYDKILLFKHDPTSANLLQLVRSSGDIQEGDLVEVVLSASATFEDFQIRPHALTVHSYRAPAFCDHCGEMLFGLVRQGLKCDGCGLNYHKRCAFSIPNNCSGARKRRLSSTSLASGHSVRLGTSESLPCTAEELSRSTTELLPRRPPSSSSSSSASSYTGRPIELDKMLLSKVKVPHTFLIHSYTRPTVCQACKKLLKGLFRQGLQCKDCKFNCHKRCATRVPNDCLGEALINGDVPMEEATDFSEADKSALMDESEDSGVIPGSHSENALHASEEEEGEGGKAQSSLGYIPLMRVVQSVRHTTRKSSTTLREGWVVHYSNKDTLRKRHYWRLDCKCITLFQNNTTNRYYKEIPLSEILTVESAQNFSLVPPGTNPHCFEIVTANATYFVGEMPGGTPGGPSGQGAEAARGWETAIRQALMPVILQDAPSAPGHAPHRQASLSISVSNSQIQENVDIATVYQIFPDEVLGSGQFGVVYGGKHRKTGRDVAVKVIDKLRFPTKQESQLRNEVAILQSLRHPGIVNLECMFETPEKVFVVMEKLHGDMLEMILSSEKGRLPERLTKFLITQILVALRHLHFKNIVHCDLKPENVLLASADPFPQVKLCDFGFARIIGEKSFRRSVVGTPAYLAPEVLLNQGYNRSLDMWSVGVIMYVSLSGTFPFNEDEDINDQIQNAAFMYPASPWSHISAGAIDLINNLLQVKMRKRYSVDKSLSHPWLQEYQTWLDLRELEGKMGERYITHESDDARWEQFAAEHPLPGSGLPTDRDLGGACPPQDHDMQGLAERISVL
The response must be a number in % with no trailing unit.

compound | inhibition, %
O=c1c2cc(CS(=O)(=O)NCc3ccccn3)ccc2ccc2ncc(C3CCNCC3)cc12 | -5.2
Cn1cc(-c2cnc3ccc4ccc(CS(=O)(=O)NCC5CCCCN5)cc4c(=O)c3c2)cn1 (configuration not stated) | -3.8
Cn1cc(-c2cnc3ccc4ccc(CS(=O)(=O)NC5CCCCC5)cc4c(=O)c3c2)cn1 | -3.6
Cn1cc(-c2cnc3ccc4ccc(CS(N)(=O)=O)cc4c(=O)c3c2)cn1 | 7.3
Cn1cc(-c2cnc3ccc4ccc(CS(=O)(=O)CCc5ccccn5)cc4c(=O)c3c2)cn1 | -8.3

INPUT: Data request, read-out inhibition, for O=C(CCc1ccc2ccc3ncc(C4CCNCC4)cc3c(=O)c2c1)NCc1ccccn1
OUTPUT: 7.5

INPUT: Data request, read-out inhibition, for CN(c1ccc2ccc3ncc(-c4cnn(C)c4)cc3c(=O)c2c1)S(=O)(=O)NCc1ccccn1
OUTPUT: 5.7

----------
biological target: UniProtKB P31749; assay: Caliper, Mobility shift assay off-chip; conditions: compound 1.0 µM
Sequence (P31749 whole entry, looked up): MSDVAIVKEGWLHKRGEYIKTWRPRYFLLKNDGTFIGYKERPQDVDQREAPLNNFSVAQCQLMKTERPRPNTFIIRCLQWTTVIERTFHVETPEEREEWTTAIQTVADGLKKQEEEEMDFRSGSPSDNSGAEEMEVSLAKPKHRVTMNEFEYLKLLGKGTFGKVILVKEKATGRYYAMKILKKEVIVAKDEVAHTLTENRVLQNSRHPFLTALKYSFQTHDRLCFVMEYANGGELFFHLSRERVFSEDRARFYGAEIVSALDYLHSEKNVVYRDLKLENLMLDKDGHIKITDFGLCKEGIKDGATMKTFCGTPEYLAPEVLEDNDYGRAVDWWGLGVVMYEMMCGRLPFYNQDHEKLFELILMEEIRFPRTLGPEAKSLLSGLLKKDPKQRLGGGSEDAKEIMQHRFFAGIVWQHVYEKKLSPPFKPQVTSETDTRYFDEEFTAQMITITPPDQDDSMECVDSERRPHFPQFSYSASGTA
assay_readout: inhibition
Kindly format the answer as number then unit.

The cases that follow already have their inhibition on record.
molecule | result
O=C(CCc1ccc2ccc3ncc(C4CCNCC4)cc3c(=O)c2c1)NCc1ccccn1 | 1.7%
Cn1cc(-c2cnc3ccc4ccc(CS(N)(=O)=O)cc4c(=O)c3c2)cn1 | 1.3%
Cn1cc(-c2cnc3ccc4ccc(CS(=O)(=O)CCc5ccccn5)cc4c(=O)c3c2)cn1 | 0.7%
Cn1cc(-c2cnc3ccc4ccc(CS(=O)(=O)NCC5CCCCN5)cc4c(=O)c3c2)cn1 (stereo not given) | 5.2%

Okay, now this molecule:
INPUT: Give inhibition (UniProtKB P31749) of the following molecule: CN(c1ccc2ccc3ncc(-c4cnn(C)c4)cc3c(=O)c2c1)S(=O)(=O)NCc1ccccn1
OUTPUT: 6.2%

----------
molecular target: RPS6KA4 KD1 KD2 (human); assay: Caliper, Mobility shift assay off-chip; conditions: compound 1.0 µM
Readings of inhibition for the listed compounds
The response must be a number in % with no trailing unit.

compound | assay_readout | units_of_measure | quantitative_readout
O=C(CCc1ccc2ccc3ncc(C4CCNCC4)cc3c(=O)c2c1)NCc1ccccn1 | inhibition | % | 1
Cn1cc(-c2cnc3ccc4ccc(CS(=O)(=O)CCc5ccccn5)cc4c(=O)c3c2)cn1 | inhibition | % | -1.8

INPUT: Data request, read-out inhibition, for Cn1cc(-c2cnc3ccc4ccc(CS(=O)(=O)NCC5CCCCN5)cc4c(=O)c3c2)cn1 (centres undefined)
OUTPUT: -17.3

INPUT: Data request, read-out inhibition, for CN(c1ccc2ccc3ncc(-c4cnn(C)c4)cc3c(=O)c2c1)S(=O)(=O)NCc1ccccn1
OUTPUT: 7.4

----------
Readings of inhibition for the listed molecules
molecular target: UniProtKB P31749; experiment: Caliper, Mobility shift assay off-chip; conditions: compound 0.1 µM
The response must be a number in % with no trailing unit.

molecule | assay_system | units_of_measure | inhibition
Cn1cc(-c2cnc3ccc4ccc(CS(=O)(=O)NC5CCCCC5)cc4c(=O)c3c2)cn1 | UniProtKB P31749 | % | 7.4

INPUT: Data request, read-out inhibition, for CN(c1ccc2ccc3ncc(-c4cnn(C)c4)cc3c(=O)c2c1)S(=O)(=O)NCc1ccccn1
OUTPUT: -4.1

INPUT: Data request, read-out inhibition, for O=C(CCc1ccc2ccc3ncc(C4CCNCC4)cc3c(=O)c2c1)NCc1ccccn1
OUTPUT: -7.2

INPUT: Data request, read-out inhibition, for O=c1c2cc(CS(=O)(=O)NCc3ccccn3)ccc2ccc2ncc(C3CCNCC3)cc12
OUTPUT: -1.1

INPUT: Data request, read-out inhibition, for Cn1cc(-c2cnc3ccc4ccc(CS(N)(=O)=O)cc4c(=O)c3c2)cn1
OUTPUT: -2.2

INPUT: Data request, read-out inhibition, for Cn1cc(-c2cnc3ccc4ccc(CS(=O)(=O)NCC5CCCCN5)cc4c(=O)c3c2)cn1 (configuration not stated)
OUTPUT: 12.6

INPUT: Data request, read-out inhibition, for Cn1cc(-c2cnc3ccc4ccc(CS(=O)(=O)CCc5ccccn5)cc4c(=O)c3c2)cn1
OUTPUT: -1.3

----------
biological target: MAPKAPK3 (human) (UniProt Q16644); assay: Caliper, Mobility shift assay off-chip; conditions: compound 1.0 µM
Sequence (Q16644 whole entry, looked up): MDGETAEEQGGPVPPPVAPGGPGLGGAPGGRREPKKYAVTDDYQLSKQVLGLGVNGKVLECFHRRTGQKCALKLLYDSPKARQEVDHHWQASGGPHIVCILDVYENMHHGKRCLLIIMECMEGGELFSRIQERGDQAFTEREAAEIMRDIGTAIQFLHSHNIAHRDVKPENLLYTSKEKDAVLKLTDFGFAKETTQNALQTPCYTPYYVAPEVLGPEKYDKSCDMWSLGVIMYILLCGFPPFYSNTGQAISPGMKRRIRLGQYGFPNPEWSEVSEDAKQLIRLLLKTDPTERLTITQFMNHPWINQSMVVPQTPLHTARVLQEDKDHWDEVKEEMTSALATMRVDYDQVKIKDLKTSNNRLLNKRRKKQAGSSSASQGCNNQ
Readings of inhibition for the listed molecules
The response must be a number in % with no trailing unit.

smiles_string | assay_system | assay_readout | quantitative_readout
Cn1cc(-c2cnc3ccc4ccc(CS(=O)(=O)CCc5ccccn5)cc4c(=O)c3c2)cn1 | MAPKAPK3 (human) (UniProt Q16644) | inhibition | -5.4
O=C(CCc1ccc2ccc3ncc(C4CCNCC4)cc3c(=O)c2c1)NCc1ccccn1 | MAPKAPK3 (human) (UniProt Q16644) | inhibition | 0.5
Cn1cc(-c2cnc3ccc4ccc(CS(N)(=O)=O)cc4c(=O)c3c2)cn1 | MAPKAPK3 (human) (UniProt Q16644) | inhibition | 5.7

Okay, now this molecule:
INPUT: Data request, read-out inhibition, for CN(c1ccc2ccc3ncc(-c4cnn(C)c4)cc3c(=O)c2c1)S(=O)(=O)NCc1ccccn1
OUTPUT: -2.3

----------
molecular target: UniProtKB P24941; assay: Caliper, Mobility shift assay off-chip; details: compound 1.0 µM
assay_readout: inhibition (%)
The response must be a number in % with no trailing unit.

molecule | units_of_measure | inhibition
Cn1cc(-c2cnc3ccc4ccc(CS(=O)(=O)CCc5ccccn5)cc4c(=O)c3c2)cn1 | % | -3.4
Cn1cc(-c2cnc3ccc4ccc(CS(=O)(=O)NCC5CCCCN5)cc4c(=O)c3c2)cn1 (stereo not given) | % | 1.4

INPUT: Data request, read-out inhibition, for CN(c1ccc2ccc3ncc(-c4cnn(C)c4)cc3c(=O)c2c1)S(=O)(=O)NCc1ccccn1
OUTPUT: 4.8

INPUT: Data request, read-out inhibition, for Cn1cc(-c2cnc3ccc4ccc(CS(N)(=O)=O)cc4c(=O)c3c2)cn1
OUTPUT: -3.9

INPUT: Data request, read-out inhibition, for O=C(CCc1ccc2ccc3ncc(C4CCNCC4)cc3c(=O)c2c1)NCc1ccccn1
OUTPUT: -6.6
